# binding to PAR3 ratio per entry
- System Tested: T1, hPAR3 (Biotin) peptide (human, biotin on the C-terminal lysine (SKB))
- T1 construct: also called PAR3 peptide; PAR3 screening peptide
- T1 peptide: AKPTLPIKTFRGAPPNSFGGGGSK
- Experiment Notes: ELISA, hybridoma supernatant
Dear colleague, please return just the value in ratio, with no unit written.

Form: binder = 5F RE6.D3.E7 (antibody, IgG2a, V domains shown, also called MoB5F E6) VH: QVQLAESGGGVVQPGRSLRVSCAASGFTFSSYGMHWVRQAPGKGLEWVAVIWYDGTKKYYADSLKGRFTISRDNSKYTLYLQMNSLRADDTALYFCARKGARGITGLDYWGQGTLVTVSS VL: DIQMTQSPSSLSASAGDRITITCRASQSISNYLNWYQQKPGKAPKLLIYAASSLQSGVPSRFSGSGSGTDFTLTISSLQPEDFASYYCRQNYNTPLTFGGGTKVEIK ; binding to PAR3 ratio = 0.8

Form: binder = 5I.RG1.D6.C1b (antibody, IgG3, V domains shown, also called 51.RG1; MoB5I G1) VH: QVQLQQWGAGLLKPSETLSLACAISSGSFSTYFWRWIRQPPGKGLEWIGEIIHTGSTTYNPSLKSRVTISVDTSKNQLSLKLSSVTAADTAVYYCAFEYSSSGGYYYGMDVWGQGTTVTVSS VL: DIQMTQSPSSLSASVGDRVTITCRASQSISSYLNWYQQIPGKAPNLLIYAASSLRSGVPSRFSGSGSGTDFTLTISSLQPEDFATYYCQQTYSTPLTFGGGTKVEIK ; binding to PAR3 ratio = 1

Form: binder = 5H.RF2.A5b.D3.C2 (antibody, IgG2a, V domains shown, also called MoB5H F2) VH: QVQLQQWGAGLLKPSETLALTCAVYGGSLSDYYWSWIRQPPGKGLEWIGEINHSGTTNYNPSLKSRVTISVDTSKKQFSLKLSSVTAADTAVYYCAIEYSNSRGYYYGMDVWGQGTTVTVSS VL: DIQMTQSPSSLSASAGDRITITCRASQTISNYLNWYQQKPGKAPKLLIYAASSLQSGVPSRFSGSGSGTDFTLTISSLQPEDFASYYCRQNYNTPLTFGGGTKVEIK ; binding to PAR3 ratio = 0.9
